Measured on: T1, human DLL3-his protein (human, UniProt Q9NYJ7 27-492)
T1 construct: also called human DLL3 protein; DLL3 antigen protein; not shown: His tag
T1 sequence: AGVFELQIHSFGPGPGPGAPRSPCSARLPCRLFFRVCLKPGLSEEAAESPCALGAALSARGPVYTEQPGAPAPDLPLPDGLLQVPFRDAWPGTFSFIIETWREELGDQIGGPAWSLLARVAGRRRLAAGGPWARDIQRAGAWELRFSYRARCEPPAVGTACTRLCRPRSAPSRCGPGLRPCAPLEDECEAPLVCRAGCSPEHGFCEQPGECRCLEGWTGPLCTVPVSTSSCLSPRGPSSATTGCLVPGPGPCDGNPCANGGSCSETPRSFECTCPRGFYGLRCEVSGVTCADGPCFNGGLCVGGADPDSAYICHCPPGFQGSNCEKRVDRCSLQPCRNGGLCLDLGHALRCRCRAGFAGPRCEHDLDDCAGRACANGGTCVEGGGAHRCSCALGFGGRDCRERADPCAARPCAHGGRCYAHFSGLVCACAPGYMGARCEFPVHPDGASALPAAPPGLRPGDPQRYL
Assay details: ELISA
Measurement kind: binding result

binder="Hab013VL2VH2a-hFc (Fc fusion, humanized mab013, VL-linker-VH-human IgG1 Fc; not shown: linker; human IgG1 Fc fragment) scFv (part 1 of 2): EIVLTQSPATLSLSPGERATLSCRASKSVSTSGFSYMHWYQQKPGQPPRLLIYLASNLESGIPARFSGSGSGTDFTLTISSLEPEDFAVYYCQHSRELPFTFGQGTKLEIK scFv (part 2 of 2): EVQLVQSGAEVKKPGSSVKVSCKASGYAFSNYWINWVRQAPGQGLEWMGQINPGDGDTIYNSKFKGRVTITADKSTSTAYMELSSLRSEDTAVYYCEREGRNYGDFAYWGQGTTVTVSS" reported_result=binds
binder="Hab015VL4VH1b-hFc (Fc fusion, humanized mab015, VL-linker-VH-human IgG1 Fc; also called Hab015L4H1b; not shown: linker; human IgG1 Fc fragment) scFv (part 1 of 2): NIVLTQSPATLSLSPGERATLSCKASENVGTYVSWFQQKPGQSPRLLIYGASNRYTGIPARFSGSGSGTDFTLTISSLEPEDFAVYYCGQFYSFPSTFGGGTKVEIK scFv (part 2 of 2): EVQLVESGGGLVKPGGSLRLSCAASGITFSNFWMNWVRQAPGKGLEWVGQIRLKSEDYATHYAESVKGRFTISREDSKNTVYLQMNSLKTEDTAVYYCTTGYYFDYWGQGTTVTVSS" reported_result=binds
